Target: Yer184c (UniProt P39961)
Sequence: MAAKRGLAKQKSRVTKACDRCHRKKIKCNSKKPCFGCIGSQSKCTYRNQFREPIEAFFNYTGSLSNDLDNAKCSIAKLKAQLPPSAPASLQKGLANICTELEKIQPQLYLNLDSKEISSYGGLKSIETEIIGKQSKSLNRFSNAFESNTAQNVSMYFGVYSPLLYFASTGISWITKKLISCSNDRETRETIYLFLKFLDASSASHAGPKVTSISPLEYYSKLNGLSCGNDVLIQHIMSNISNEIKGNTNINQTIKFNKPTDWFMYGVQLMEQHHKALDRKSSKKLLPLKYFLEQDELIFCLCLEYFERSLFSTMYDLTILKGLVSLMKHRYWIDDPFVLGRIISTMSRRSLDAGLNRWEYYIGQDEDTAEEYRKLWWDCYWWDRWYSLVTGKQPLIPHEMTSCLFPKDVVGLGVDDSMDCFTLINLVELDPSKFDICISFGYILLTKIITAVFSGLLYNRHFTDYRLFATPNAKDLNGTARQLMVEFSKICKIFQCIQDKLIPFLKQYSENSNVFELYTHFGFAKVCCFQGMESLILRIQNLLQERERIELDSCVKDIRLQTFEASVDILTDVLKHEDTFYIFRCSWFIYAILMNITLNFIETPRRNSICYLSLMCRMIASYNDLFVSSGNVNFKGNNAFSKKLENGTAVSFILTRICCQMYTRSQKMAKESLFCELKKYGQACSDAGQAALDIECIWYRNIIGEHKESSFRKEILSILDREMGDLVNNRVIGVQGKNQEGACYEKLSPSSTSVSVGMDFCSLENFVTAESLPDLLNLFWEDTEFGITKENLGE
Test: PBM E-score (8-mer binding enrichment) (E-score (-0.5 to 0.5)); higher = stronger / more preferred TF binding
Conditions: protein concentration: 100 nM; construct: GST-full length
In all, about 33,000 sequences were measured (“E-score (-0.5 to 0.5)”: median about -0.016, highest 2% from about 0.3 on). For the sample, the highest values were picked, then their nearest neighbours and some sequences at random.
# class assignment by measured PBM E-score: low bin: < 0.1; mid bin: ≥ 0.1 and < 0.3; high bin: ≥ 0.3

Which category fits this record: `GGGATATA`
low bin

Which category fits this record: `ACCCGGGC`
mid bin

Which category fits this record: `CCCTAAAA`
low bin

Which category fits this record: `TCGGCTAA`
high bin

---
Which category fits this record: `CGGATCAA`
high bin

Which category fits this record: `AAAATTAT`
high bin

Which category fits this record: `ATAGAACA`
low bin

Which category fits this record: `AGTTCGAT`
low bin

Which category fits this record: `GTTCCGTA`
mid bin

Which category fits this record: `ATTCCGCG`
mid bin

Which category fits this record: `CGGATATC`
mid bin

Which category fits this record: `CGGTCCGA`
high bin

Which category fits this record: `ATTCCGTG`
high bin

Which category fits this record: `AAAATTAG`
mid bin

Which category fits this record: `GTGAATCA`
low bin

Which category fits this record: `ATACATAT`
mid bin

Which category fits this record: `CCGGCTCG`
high bin

Which category fits this record: `ATCGCCGA`
high bin

Which category fits this record: `TGGATCAA`
low bin

Which category fits this record: `CGGCTCAG`
high bin

Which category fits this record: `AAGTCTAA`
low bin

Which category fits this record: `CGGCTCAA`
high bin

Which category fits this record: `GGGAGATA`
low bin
